Test: Cmax in cannula implanted rat at 5 mg/kg administered through oral gavage after 24 hrs by LC-MS/MS analysis
Type: ADME, organism-based
Design: dose 5 mg/kg, route oral
Settings: in vivo
The following molecules are shown together with reported Cmax values.
The figure you give is taken to be in nM; do not add the unit.

Examples from the recorded data:
C=C(C)[C@@H]1CC[C@]2(C(=O)NCCC(=O)O)CC[C@]3(C)[C@H](CC[C@@H]4[C@@]5(C)CC=C(c6ccc(C(=O)O)cc6)C(C)(C)[C@@H]5CC[C@]43C)[C@@H]12 :: 9470
C=C(C)[C@@H]1CC[C@]2(C(=O)N(C)CCN(C)C)CC[C@]3(C)[C@H](CC[C@@H]4[C@@]5(C)CC=C(c6ccc(C(=O)O)cc6)C(C)(C)[C@@H]5CC[C@]43C)[C@@H]12 :: 386

### Prompt For the molecule C=C(C)[C@@H]1CC[C@]2(C(=O)NCCC(C)C)CC[C@]3(C)[C@H](CC[C@@H]4[C@@]5(C)CC=C(c6ccc(C(=O)O)cc6)C(C)(C)[C@@H]5CC[C@]43C)[C@@H]12 , give its reported Cmax.
### Response 731

* * *

Assay: Cytotoxicity against human MT2 cells
Format: cell-based
measured attribute: CC50 (µM)
The figure you give is taken to be in µM; do not add the unit.

C=C(C)[C@@H]1CC[C@]2(C(=O)NCCN(CC)CC)CC[C@]3(C)[C@H](CC[C@@H]4[C@@]5(C)CC=C(c6ccc(C(=O)O)cc6)C(C)(C)[C@@H]5CC[C@]43C)[C@@H]12 :: 33
C=C(C)[C@@H]1CC[C@]2(C(=O)NCCN3CCOCC3)CC[C@]3(C)[C@H](CC[C@@H]4[C@@]5(C)CC=C(c6ccc(C(=O)O)cc6)C(C)(C)[C@@H]5CC[C@]43C)[C@@H]12 :: 5
C=C(C)[C@@H]1CC[C@]2(C(=O)NCCN3CCCCC3)CC[C@]3(C)[C@H](CC[C@@H]4[C@@]5(C)CC=C(c6ccc(C(=O)O)cc6)C(C)(C)[C@@H]5CC[C@]43C)[C@@H]12 :: 10
C=C(C)[C@@H]1CC[C@]2(C(=O)NCCOC)CC[C@]3(C)[C@H](CC[C@@H]4[C@@]5(C)CC=C(c6ccc(C(=O)O)cc6)C(C)(C)[C@@H]5CC[C@]43C)[C@@H]12 :: 14
C=C(C)[C@@H]1CC[C@]2(C(=O)NCCCN(C)C)CC[C@]3(C)[C@H](CC[C@@H]4[C@@]5(C)CC=C(c6ccc(C(=O)O)cc6)C(C)(C)[C@@H]5CC[C@]43C)[C@@H]12 :: 0.5
C=C(C)[C@@H]1CC[C@]2(C(=O)NCCO)CC[C@]3(C)[C@H](CC[C@@H]4[C@@]5(C)CC=C(c6ccc(C(=O)O)cc6)C(C)(C)[C@@H]5CC[C@]43C)[C@@H]12 :: 7

### Prompt For the compound C=C(C)[C@@H]1CC[C@]2(C(=O)NCCN(C)C(C)=O)CC[C@]3(C)[C@H](CC[C@@H]4[C@@]5(C)CC=C(c6ccc(C(=O)O)cc6)C(C)(C)[C@@H]5CC[C@]43C)[C@@H]12 , give its reported CC50.
### Response 9

### Prompt For the compound C=C(C)[C@@H]1CC[C@]2(C(=O)NCCN(C(C)C)C(C)C)CC[C@]3(C)[C@H](CC[C@@H]4[C@@]5(C)CC=C(c6ccc(C(=O)O)cc6)C(C)(C)[C@@H]5CC[C@]43C)[C@@H]12 , give its reported CC50.
### Response 3

* * *

System: Human immunodeficiency virus 1
Experiment: Antiviral activity against wild type HIV1 NL4-3 infected in human MT2 cells after 4 to 5 days by dual-luciferase reporter gene assay
Type: functional, organism-based
Settings: Human immunodeficiency virus 1, NL4-3, MT2
measured attribute: EC50 (nM)
The figure you give is taken to be in nM; do not add the unit.

Examples from the recorded data:
C=C(C)[C@@H]1CC[C@]2(C(=O)NCCN(C)C(C)=O)CC[C@]3(C)[C@H](CC[C@@H]4[C@@]5(C)CC=C(c6ccc(C(=O)O)cc6)C(C)(C)[C@@H]5CC[C@]43C)[C@@H]12 :: 3
C=C(C)[C@@H]1CC[C@]2(C(=O)NCCO)CC[C@]3(C)[C@H](CC[C@@H]4[C@@]5(C)CC=C(c6ccc(C(=O)O)cc6)C(C)(C)[C@@H]5CC[C@]43C)[C@@H]12 :: 7

# evaluate next
### Prompt For the molecule C=C(C)[C@@H]1CC[C@]2(C(=O)NCCc3ccccn3)CC[C@]3(C)[C@H](CC[C@@H]4[C@@]5(C)CC=C(c6ccc(C(=O)O)cc6)C(C)(C)[C@@H]5CC[C@]43C)[C@@H]12 , give its reported EC50.
### Response 15

* * *

The following compounds are shown together with reported AUC at 24 h values.
Assay: Total AUC in cannula implanted rat at 5 mg/kg administered through oral gavage after 24 hrs by LC-MS/MS analysis
Format: ADME, organism-based
Design: dose 5 mg/kg, time AUCmax, route oral
Conditions: in vivo
The figure you give is taken to be in µM·h; do not add the unit.

### Prompt For the compound C=C(C)[C@@H]1CC[C@]2(C(=O)NCCC(=O)O)CC[C@]3(C)[C@H](CC[C@@H]4[C@@]5(C)CC=C(c6ccc(C(=O)O)cc6)C(C)(C)[C@@H]5CC[C@]43C)[C@@H]12 , give its reported AUC at 24 h.
### Response 79.9

### Prompt For the compound C=C(C)[C@@H]1CC[C@]2(C(=O)NCCc3ccccn3)CC[C@]3(C)[C@H](CC[C@@H]4[C@@]5(C)CC=C(c6ccc(C(=O)O)cc6)C(C)(C)[C@@H]5CC[C@]43C)[C@@H]12 , give its reported AUC at 24 h.
### Response 1.23

### Prompt For the compound C=C(C)[C@@H]1CC[C@]2(C(=O)N(C)CCN(C)C)CC[C@]3(C)[C@H](CC[C@@H]4[C@@]5(C)CC=C(c6ccc(C(=O)O)cc6)C(C)(C)[C@@H]5CC[C@]43C)[C@@H]12 , give its reported AUC at 24 h.
### Response 6.87

* * *

System: Human immunodeficiency virus 1
Experiment: Antiviral activity against wild type HIV1 NL4-3 infected in human MT2 cells after 4 to 5 days by dual-luciferase reporter gene assay
Assay type: functional, organism-based
Details: Human immunodeficiency virus 1, NL4-3, MT2
The following compounds are shown together with reported EC50 values.
The figure you give is taken to be in nM; do not add the unit.

### Prompt For the compound C=C(C)[C@@H]1CC[C@]2(C(=O)NCCN(CC)CCC(=O)O)CC[C@]3(C)[C@H](CC[C@@H]4[C@@]5(C)CC=C(c6ccc(C(=O)O)cc6)C(C)(C)[C@@H]5CC[C@]43C)[C@@H]12 , give its reported EC50.
### Response 2

### Prompt For the compound C=C(C)[C@@H]1CC[C@]2(C(=O)NCCN(C)CC(=O)O)CC[C@]3(C)[C@H](CC[C@@H]4[C@@]5(C)CC=C(c6ccc(C(=O)O)cc6)C(C)(C)[C@@H]5CC[C@]43C)[C@@H]12 , give its reported EC50.
### Response 10

### Prompt For the compound C=C(C)[C@@H]1CC[C@]2(C(=O)NCCNC(C)=O)CC[C@]3(C)[C@H](CC[C@@H]4[C@@]5(C)CC=C(c6ccc(C(=O)O)cc6)C(C)(C)[C@@H]5CC[C@]43C)[C@@H]12 , give its reported EC50.
### Response 5

### Prompt For the compound C=C(C)[C@@H]1CC[C@]2(C(=O)NCc3ccccn3)CC[C@]3(C)[C@H](CC[C@@H]4[C@@]5(C)CC=C(c6ccc(C(=O)O)cc6)C(C)(C)[C@@H]5CC[C@]43C)[C@@H]12 , give its reported EC50.
### Response 5

### Prompt For the compound C=C(C)[C@@H]1CC[C@]2(C(=O)N[C@@H](CN(C)C)C(=O)O)CC[C@]3(C)[C@H](CC[C@@H]4[C@@]5(C)CC=C(c6ccc(C(=O)O)cc6)C(C)(C)[C@@H]5CC[C@]43C)[C@@H]12 , give its reported EC50.
### Response 46

* * *

Test system: Human immunodeficiency virus 1
Assay: Antiviral activity against wild type BVM-resistant HIV1 NL4-3 habouring Gag protein T371A mutant infected in human MT2 cells after 4 to 5 days by dual-luciferase reporter gene assay
Assay type: functional, organism-based
Conditions: Human immunodeficiency virus 1, NL4-3, MT2
measured attribute: pEC50
Field pEC50 (float): negative decimal logarithm of the concentration in molar.

C=C(C)[C@@H]1CC[C@]2(C(=O)NCCc3ccccn3)CC[C@]3(C)[C@H](CC[C@@H]4[C@@]5(C)CC=C(c6ccc(C(=O)O)cc6)C(C)(C)[C@@H]5CC[C@]43C)[C@@H]12 :: 7.72

### Prompt For the molecule C=C(C)[C@@H]1CC[C@]2(C(=O)NCCN(C)C)CC[C@]3(C)[C@H](CC[C@@H]4[C@@]5(C)CC=C(c6ccc(C(=O)O)cc6)C(C)(C)[C@@H]5CC[C@]43C)[C@@H]12 , give its reported pEC50.
### Response 8.52

### Prompt For the molecule C=C(C)[C@@H]1CC[C@]2(C(=O)O)CC[C@]3(C)[C@H](CC[C@@H]4[C@@]5(C)CC[C@H](OC(=O)CC(C)(C)C(=O)O)C(C)(C)[C@@H]5CC[C@]43C)[C@@H]12 , give its reported pEC50.
### Response 7.40

Numbers sourced from ChEMBL document CHEMBL3784995.
